# System: SN12C
# ASSAY EXPLANATION: Growth inhibition of human SN12C cells incubated for 48 hrs by sulforhodamine B assay
# Format: functional
# EXPERIMENTAL CONDITIONS: read-out: LC50 (the source's name)
Would you mind telling me the reported CC50 of each entry?
One number for each entry, in µM.

Would you please look over these solved cases?
{"COMPOUND": "C=C1CC[C@@H]2[C@](C)(COC(C)=O)[C@H](OC(C)=O)CC[C@@]2(C)[C@H]1CC(Nc1ccc(S(=O)(=O)Nc2cc(C)on2)cc1)C1=CCOC1=O (stereo not given in full)", "CC50 / µM": 20.7}
{"COMPOUND": "C=C1CC[C@@H]2[C@](C)(COC(C)=O)[C@H](OC(C)=O)CC[C@@]2(C)[C@H]1CC(Nc1ccc(S(=O)(=O)Nc2nccc(C)n2)cc1)C1=CCOC1=O (stereo not given in full)", "CC50 / µM": 81.2}
{"COMPOUND": "C=C1CC[C@@H]2[C@](C)(COC(C)=O)[C@H](OC(C)=O)CC[C@@]2(C)[C@H]1CC(Nc1ccc(S(=O)(=O)Nc2ncccn2)cc1)C1=CCOC1=O (stereo not given in full)", "CC50 / µM": 5.82}

For each entry beneath this line, provide reported CC50.
1. C=C1CC[C@@H]2[C@](C)(COC(C)=O)[C@H](OC(C)=O)CC[C@@]2(C)[C@H]1CC(Nc1ccc(S(=O)(=O)Nc2nccs2)cc1)C1=CCOC1=O (stereo not given in full)
2. C=C1CC[C@@H]2[C@](C)(COC(C)=O)[C@H](OC(C)=O)CC[C@@]2(C)[C@H]1CC(Nc1ccc(S(=O)(=O)Nc2ccc(Cl)nn2)cc1)C1=CCOC1=O (stereo not given in full)

1. 14.3
2. 12.7

---

# Test system: OVCAR-5
# ASSAY EXPLANATION: Growth inhibition of human OVCAR5 cells incubated for 48 hrs by sulforhodamine B assay
# Type: functional
# EXPERIMENTAL CONDITIONS: OVCAR-5, 48 h
Would you mind telling me the reported GI50 of each entry?
Write the quantity with the unit trailing the number.

Would you please look over these solved cases?
{"MOLECULE": "C=C1CC[C@@H]2[C@](C)(COC(C)=O)[C@H](OC(C)=O)CC[C@@]2(C)[C@H]1CC(Nc1ccc(S(=O)(=O)Nc2ncccn2)cc1)C1=CCOC1=O (stereo not given in full)", "GI50": "1980 nM"}
{"MOLECULE": "C=C1CC[C@@H]2[C@](C)(COC(C)=O)[C@H](OC(C)=O)CC[C@@]2(C)[C@H]1CC(Nc1ccc(S(=O)(=O)Nc2nccs2)cc1)C1=CCOC1=O (stereo not given in full)", "GI50": "4820 nM"}
{"MOLECULE": "C=C1CC[C@@H]2[C@](C)(COC(C)=O)[C@H](OC(C)=O)CC[C@@]2(C)[C@H]1CC(Nc1ccc(S(=O)(=O)Nc2ccc(Cl)nn2)cc1)C1=CCOC1=O (stereo not given in full)", "GI50": "2010 nM"}
{"MOLECULE": "C=C1CC[C@@H]2[C@](C)(COC(C)=O)[C@H](OC(C)=O)CC[C@@]2(C)[C@H]1CC(Nc1ccc(S(=O)(=O)Nc2cc(C)on2)cc1)C1=CCOC1=O (stereo not given in full)", "GI50": "2160 nM"}

Consider the additional molecule presented here.
Recall the reported GI50 of C=C1CC[C@@H]2[C@](C)(COC(C)=O)[C@H](OC(C)=O)CC[C@@]2(C)[C@H]1CC(Nc1ccc(S(=O)(=O)Nc2nccc(C)n2)cc1)C1=CCOC1=O (stereo not given in full) on OVCAR-5 and write it down.
3860 nM

src = ChEMBL document CHEMBL4033712
